test system: MOLT-4; assay: NCI tumour cell line growth inhibition, 48 h
Activity calls are given as the source filed them. Cut-off read from the data, not from the text of the source: active = GI50 up to about 1.1 µM and inactive = higher.
Result category, one only: class 1 for active, class 0 for inactive

**Query** Any idea what this test logged for O=C(Cc1cc[n+]([O-])cc1)C(=O)Nc1cc(Cl)c(Cl)cc1Cl ?
**Result** class 0

---

system: SK-MEL-2; test: NCI tumour cell line growth inhibition, 48 h
Calls of active or inactive are those of the source. No stated cut-off is given here; in the data, active = GI50 up to about 1.1 µM and inactive = higher.
Listing of recorded GI50 by entry.

// GI50 value for Cc1[nH]c(=O)nc(N/N=C/c2ccc(O)cc2)c1C(=O)Nc1ccc(Cl)cc1 : > 100 µM (inactive)

Recorded GI50 (molecule COCC(=O)OC1CCn2c1nc1c2C(=O)C(C)=C(NC(C)=O)C1=N (configuration not stated) ): 2.15 µM (inactive)

Short answer for CSc1nc(C)c2c(n1)N(c1ccc(Cl)cc1)CC2 : GI50 was > 100 µM (inactive)

Briefly, GI50 measured for c1ccc(CN(Cn2cccn2)Cn2cccn2)nc1 : > 100 µM (inactive)

Entry O=C1CC2C=CC(O)C(C1)C2 (configuration not stated) ; GI50 = > 100 µM (inactive)

Quick note, GI50 for CCCCOc1ccc(S(=O)(=O)/N=C(\NN)Nc2ccc(Cl)cc2)cc1 landed at > 100 µM (inactive)

// sample CC(=O)OC1COC(N2C(=O)/C(=N\NC(N)=S)c3cc(Br)ccc32)C(OC(C)=O)C1OC(C)=O (configuration not stated) , its GI50 was > 100 µM (inactive)

Reported GI50 of CCOC(=O)c1ccn2c(c1)c(C#N)c1nc3ccccc3nc12 : > 100 µM (inactive)

---

system: UO-31; experiment: NCI tumour cell line growth inhibition, 48 h
Activity calls are given as the source filed them. Cut-off read from the data, not from the text of the source: active = GI50 up to about 1.1 µM and inactive = higher.
The reply should name one outcome from Y = active, N = inactive

Here's what some known entries look like.
>>> df
                                   molecule  label
0  O=C1c2c(O)cccc2C(C(=O)CCCC(=O)C2c3cccc(O)c3C(=O)c3c(O)cccc32)c2cccc(O)c21      Y
1  NC(CSC(c1ccccc1)(c1ccccc1)c1ccccc1)C(=O)O (centres undefined)      N

**Query** Could you please tell me the result logged for SC1=NNC2(C(S)=N1)c1ccccc1-c1ccccc12 in this assay?
**Result** N

**Query** Please state the recorded outcome for this molecule: O=C1C(/N=N/c2ccc(-c3nc4ccccc4[nH]3)cc2)NC(=S)N1c1ccccc1 (centres undefined)
**Result** N

**Query** Hi, sorry to bother you, what did the test record for O=C1OC(c2ccc(Cl)c3ccccc23)c2ccccc21 (centres undefined) ?
**Result** N

**Query** Write down the call the test reported for this molecule. Item: NC(CSC1c2ccccc2-c2ccccc21)C(=O)O (centres undefined)
**Result** N

**Query** What was the test verdict on CC(=O)NNc1nc(C)c(C(=O)NNC(=O)C(=O)Nc2c(C)cccc2C(C)C)s1 ?
**Result** N

**Query** Fill in: this test's call for C=C1CC2(CCOc3ccc(Cl)cc32)OC1=O (centres undefined) is ___
**Result** N

**Query** Write down the call the test reported for this molecule. Item: Cc1noc(-c2ccc(C(=O)O)[nH]2)c1Br
**Result** N

---

# GI50 values compiled below
test system: 786-0; experiment: NCI tumour cell line growth inhibition, 48 h
Calls of active or inactive are those of the source. Cut-off read from the data, not from the text of the source: active = GI50 up to about 1.1 µM and inactive = higher.

Field: example entries. Status: answers known.
>>> df
                                   compound  study_system  assay_metric               result
0  Cc1ccccc1/N=N/C(C(=O)c1ccccc1)C(=O)c1ccccc1         786-0          GI50   25.4 µM (inactive)
1        O=c1[nH]c2ccc(CC(=S)N3CCCCC3)cc2s1         786-0          GI50  > 100 µM (inactive)

Turning now to a further compound:
Measured GI50, CN(C)CCCNC(=O)N/N=C/c1ccc([N+](=O)[O-])cc1 : > 100 µM (inactive)

---

Entries and their measured GI50 follow.
test system: SF-268; experiment: NCI tumour cell line growth inhibition, 48 h
Activity calls are given as the source filed them. Cut-off read from the data, not from the text of the source: active = GI50 up to about 1.1 µM and inactive = higher.

Reference set (5 entries):
COMPOUND	ASSAY METRIC	RESULT
O=C(Nc1cccc([N+](=O)[O-])c1)/C(=N\NC(=O)c1ccncc1)c1nc2ccc([N+](=O)[O-])cc2nc1O	GI50	40.7 µM (inactive)
Cc1cn([C@@H]2O[C@H](CO[Si](C)(C)C(C)(C)C)[C@]3(O[C@H]3C(=O)NN)[C@H]2O[Si](C)(C)C(C)(C)C)c(=O)[nH]c1=O	GI50	3.59 µM (inactive)
O=C(Nc1ccc(Cl)cc1)c1cc(S(=O)(=O)NC2=Nc3ccc(Cl)cc3C(c3ccccc3)N2)c(SSc2cc(Cl)c(C(=O)Nc3ccc(Cl)cc3)cc2S(=O)(=O)NC2=Nc3ccc(Cl)cc3C(c3ccccc3)N2)cc1Cl (stereo not drawn)	GI50	> 100 µM (inactive)
C[N+](C)(C)CC(=O)N/N=C(/Cc1nc2ccc(Cl)cc2nc1O)C1=NS(=O)(=O)c2cc(S(N)(=O)=O)c(Cl)cc2N1	GI50	> 100 µM (inactive)
Nc1nc(=O)c2cc(NCc3ccc(C(=O)NC(CCC(=O)O)C(=O)O)cc3)ccc2[nH]1 (stereo not drawn)	GI50	59 µM (inactive)

For CC(NC(=O)C(CC(=O)OCc1ccccc1)NC(=O)OCc1ccccc1)c1ccccc1 (stereo not drawn) the compound record lists GI50 as > 100 µM (inactive)

The value of GI50 measured for the compound Nn1c(Nc2ccc(S(=O)(=O)Nc3ncccn3)cc2)nnc(/C=C/c2c(O)ccc3ccccc23)c1=O turned out to be 31.6 µM (inactive)

The value of GI50 measured for the compound COc1ccccc1/C=C(\NC(=O)c1ccccc1)c1nc2ccc(Cl)cc2[nH]1 turned out to be 30.3 µM (inactive)

For this compound ( CCOc1ccc(/C=C(\Cl)c2ccc(OC)c(OC)c2)cc1 ), measured GI50 is 87.3 µM (inactive)

Reported GI50 of O=C1NC(=S)NC(=O)C1=CC1CC1 : > 100 µM (inactive)

Noted for CC1/C=C/[C@@]2(C)CCC(C(C)(C)O)C2C(O)C[C@](C)(O)/C=C/C1 (stereo partly drawn) : its GI50 reads > 100 µM (inactive)

Notebook: COC(=O)C1CC/C(=N/C2c3ccccc3-c3ccccc32)N1 (stereo not drawn) , GI50 read as > 100 µM (inactive)

Kindly note the recorded GI50 for O=C1C(/N=N/c2ccc(-c3nc4ccccc4[nH]3)cc2)NC(=S)N1c1ccccc1 (stereo not drawn) , which is > 100 µM (inactive)

---

system: Hs-578T; test: NCI tumour cell line growth inhibition, 48 h
Activity calls are given as the source filed them. No stated cut-off is given here; in the data, active = GI50 up to about 1.1 µM and inactive = higher.
Can you answer with just one of these options? class 1 (active), class 0 (inactive)

>>> df
                                   molecule    label
0  O=C(NC1CCC(=O)N1C(=O)OCc1ccccc1)OCc1ccccc1 (stereo not given)  class 0
1  CN1CCc2ccccc2C1Cc1ccccc1NC(=O)c1sc2ccccc2c1Cl (stereo not given)  class 0
2  CCOC(=O)Oc1cc2c(c(OC)c1OC)-c1ccc(SC)c(=O)cc1C(NC(=O)C(F)(F)F)CC2 (stereo not given)  class 1
3  COc1ccc(C2=NOC(N)(c3ccc(OC)cc3)C2)cc1 (stereo not given)  class 0
4  O=C(O)c1c2c(cc3c1CC1(Cc4ccccc4C1)C3)CCC2  class 0

**Query** Returns: the outcome recorded for COc1ccc(NC2CC(C)N(C(=O)c3ccccc3)O2)cc1 (stereo not given) in this assay.
**Result** class 0

**Query** Call for entry CN1CCN(C(=S)N(C(=O)c2cccs2)C2CCCCC2)CC1 :
**Result** class 0

**Query** # fetch the recorded call for CN(C)CCN1C(=O)c2cccc3cc([N+](=O)[O-])cc(c23)C1=O [MITONAFIDE] here
**Result** class 1

---

Entries and their measured GI50 follow.
tested on: HCC 2998; test: NCI tumour cell line growth inhibition, 48 h
Calls of active or inactive are those of the source. Cut-off read from the data, not from the text of the source: active = GI50 up to about 1.1 µM and inactive = higher.

See these solved cases before continuing.
>>> print(df.to_string())
                                   molecule  assay_metric              result
0      CCC(=O)Oc1c2ccsc2c(OC(=O)CC)c2ccsc12          GI50  1.93 µM (inactive)
1  Nn1c(Nc2ccc(S(=O)(=O)Nc3ncccn3)cc2)nnc(/C=C/c2c(O)ccc3ccccc23)c1=O          GI50  23.3 µM (inactive)
2  CSc1ccc2c(cc1=O)C(NC(=O)c1ccccc1)CCc1cc(O)c(O)c(O)c1-2 (stereo not given)          GI50  4.84 µM (inactive)
3  Cc1ccc(/N=N/C(=NNC(=O)c2ccc(C)cc2)c2ccc(N(C)C)cc2)cc1          GI50  27.4 µM (inactive)

# input for lookup
Kindly note: HCC 2998, O=C1OC(c2ccc(Cl)c3ccccc23)c2ccccc21 (stereo not given) , GI50 value reported: 91.2 µM (inactive)
